These measurements were taken from patent US20240132513A1.

Could you please report measured activation at 0.1 µM for the items listed next?
assay_system: GABAA R (α5β2γ2) (Homo sapiens, UniProt P18507+P31644)
Construct: expressed in transfected cells
Sequence (P31644 32-462): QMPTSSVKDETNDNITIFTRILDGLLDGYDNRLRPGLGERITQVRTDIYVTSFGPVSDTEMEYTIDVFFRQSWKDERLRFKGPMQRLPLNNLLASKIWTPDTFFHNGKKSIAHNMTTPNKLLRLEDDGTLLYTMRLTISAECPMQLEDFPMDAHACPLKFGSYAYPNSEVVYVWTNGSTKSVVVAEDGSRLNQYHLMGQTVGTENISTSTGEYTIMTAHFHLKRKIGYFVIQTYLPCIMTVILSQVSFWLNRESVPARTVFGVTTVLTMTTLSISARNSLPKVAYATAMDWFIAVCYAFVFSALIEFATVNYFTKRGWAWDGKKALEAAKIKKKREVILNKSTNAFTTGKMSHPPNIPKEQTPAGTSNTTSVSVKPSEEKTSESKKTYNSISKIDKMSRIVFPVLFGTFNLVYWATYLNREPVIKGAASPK
Sequence (P47870 25-512 partner limits assumed): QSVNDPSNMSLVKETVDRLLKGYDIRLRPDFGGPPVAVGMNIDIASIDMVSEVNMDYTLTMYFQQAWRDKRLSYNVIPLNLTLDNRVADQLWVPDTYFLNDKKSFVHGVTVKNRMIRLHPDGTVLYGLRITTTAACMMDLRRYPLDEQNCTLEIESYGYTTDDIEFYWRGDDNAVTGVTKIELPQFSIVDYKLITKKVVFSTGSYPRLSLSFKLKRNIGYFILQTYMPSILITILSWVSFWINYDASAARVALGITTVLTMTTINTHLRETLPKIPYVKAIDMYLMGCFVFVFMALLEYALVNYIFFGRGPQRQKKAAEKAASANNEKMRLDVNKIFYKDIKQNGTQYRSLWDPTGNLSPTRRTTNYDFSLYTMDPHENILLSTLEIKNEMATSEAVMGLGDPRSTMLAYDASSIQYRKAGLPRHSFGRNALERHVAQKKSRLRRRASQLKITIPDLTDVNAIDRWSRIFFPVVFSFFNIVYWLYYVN
Sequence (P18507 40-475): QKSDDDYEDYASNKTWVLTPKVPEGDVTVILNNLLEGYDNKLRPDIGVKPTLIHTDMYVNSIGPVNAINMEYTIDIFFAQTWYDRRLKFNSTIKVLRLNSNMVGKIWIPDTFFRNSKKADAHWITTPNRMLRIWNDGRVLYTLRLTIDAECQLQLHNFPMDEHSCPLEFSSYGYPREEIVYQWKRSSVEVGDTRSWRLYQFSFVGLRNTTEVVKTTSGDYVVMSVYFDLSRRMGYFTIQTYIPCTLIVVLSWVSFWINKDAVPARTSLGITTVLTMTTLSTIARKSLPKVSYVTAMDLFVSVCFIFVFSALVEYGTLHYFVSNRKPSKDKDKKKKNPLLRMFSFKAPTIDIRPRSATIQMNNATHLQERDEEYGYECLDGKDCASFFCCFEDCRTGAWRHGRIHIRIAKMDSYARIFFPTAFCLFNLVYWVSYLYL
protocol_description: Positive allosteric modulator activity: potentiation of EC20 GABA current in oocytes
Type: cell-based
reported_conditions: read-out: GABA α5 Functional Data: potentiation, @ 100 nM, EC20 GABA; ranges of the column heads

# return recorded activation at 0.1 µM for entry Clc1ccc2c(c1)-c1c(cnn1CC1CC1)Cc1c(-c3nc(C4CC4)no3)ncn1-2
5 to 20%

Return value of activation at 0.1 µM for input Cn1cc2c(n1)-c1cc(Cl)ccc1-n1cnc(C#CC(C)(C)C)c1C2 , no commentary.
20 to 50%

Quote activation at 0.1 µM reported for CCn1cc2c(n1)-c1cc(Cl)ccc1-n1cnc(-c3noc(COC4CCCC4)n3)c1C2 please.
20 to 50%

Quote activation at 0.1 µM reported for COc1ccc2c(c1)-c1nn(C)cc1Cc1c(-c3noc(COC4CCCC4)n3)ncn1-2 please.
5 to 20%

Specify reported activation at 0.1 µM for the compound shown: Cc1noc(-c2ncn3c2Cc2cn(CC4CCOC4)nc2-c2cc(Cl)ccc2-3)n1 (stereo not shown)
20 to 50%

Determine its reported activation at 0.1 µM: COc1ccc2c(c1)-c1nn(C)cc1Cc1c(-c3noc(C(C)(C)OC)n3)ncn1-2
20 to 50%

For the compound CCn1cc2c(n1)-c1cc(OC)ccc1-n1cnc(-c3noc(C(C)C)n3)c1C2 , give its measured activation at 0.1 µM value.
20 to 50%

Tell me its activation at 0.1 µM given CC(C)c1nc(-c2ncn3c2Cc2cn[nH]c2-c2cc(Cl)ccc2-3)no1 as the entry.
5 to 20%

Quick one: give measured activation at 0.1 µM for CN(C)Cc1coc(-c2ncn3c2Cc2cn(C)nc2-c2cc(Cl)ccc2-3)n1
20 to 50%

Provide measured activation at 0.1 µM value, entry: Cn1cc2c(n1)-c1cc(Cl)ccc1-n1cnc(-c3noc(C4CC4)n3)c1C2
20 to 50%

State its activation at 0.1 µM: COc1ccc(Cn2ncc3c2-c2cc(OC)ccc2-n2cnc(-c4noc(COCC(F)(F)F)n4)c2C3)cc1
5 to 20%

Name the recorded activation at 0.1 µM of the compound listed here: CCn1cc2c(n1)-c1cc(Cl)ccc1-n1cnc(C3=N[C@H](C(C)C)CO3)c1C2
5 to 20%

Input CC(C)n1cc2c(n1)-c1cc(Cl)ccc1-n1cnc(-c3nc(C4CC4)no3)c1C2 , output reported activation at 0.1 µM.
5 to 20%

Give activation at 0.1 µM for the following compound: CC(C)c1nc(-c2ncn3c2Cc2cn(C)nc2-c2cc(Cl)ccc2-3)no1
20 to 50%

Please list activation at 0.1 µM recorded for the compound CCn1cc2c(n1)-c1cc(OC)ccc1-n1cnc(-c3noc(C(C)(C)OC)n3)c1C2
5 to 20%

Answer with the recorded activation at 0.1 µM of COc1ccc2c(c1)-c1nn(CC3CCCO3)cc1Cc1c(-c3noc(C(C)(C)OC)n3)ncn1-2 (stereo not shown) only.
> 50%
